Consider the following compounds; for each one, report its pIC50.
Test system: HCC827
Test: Antiproliferative activity against human HCC827 cells harboring EGFR del19 mutant assessed as inhibition of cell growth incubated for 72 hrs under normoxia condition by SRB assay
Format: functional, cell-based
Conditions: HCC827, 72 h
Quick note: pIC50 means taking -log10 of the concentration in moles per liter.

Q. Can you share its pIC50? I mean this compound: C=CC(=O)Nc1cc(Nc2nccc(-c3cn(C)c4ccccc34)n2)c(OC)cc1N(C)CCN(C)C [OSIMERTINIB]
A. 7.47

Q. Can you share its pIC50? I mean this compound: `COc1ccc(Nc2nccc(-c3cn(C)c4ccccc34)n2)cc1OCCOCCn1ccnc1[N+](=O)[O-]`
A. 7.60

Q. Can you share its pIC50? I mean this compound: `Cn1cc(-c2ccnc(Nc3cc(OCCOCCn4ccnc4[N+](=O)[O-])ccc3F)n2)c2ccccc21`
A. 7.49

Data origin: ChEMBL document CHEMBL5325467
